tested on: SF-268; assay: NCI tumour cell line growth inhibition, 48 h
Activity calls are given as the source filed them. No stated cut-off is given here; in the data, active = GI50 up to about 1.1 µM and inactive = higher.
// allowed return values: active, inactive

{"compound": "CCOC(=O)/C=C1/Oc2ccccc2C1(C)O (centres undefined)", "assignedClass": "inactive"}
{"compound": "Clc1ccccc1C1=NN(c2ccccc2)C2c3ccccc3OCC12 (centres undefined)", "assignedClass": "inactive"}
{"compound": "COc1ccc(OC)c(Cc2cnc3nc(N)nc(N)c3c2C)c1 [PIRITREXIM ISETHIONATE]", "assignedClass": "active"}
{"compound": "CCOC(=O)CCC(NC(=O)c1ccc(Nc2nc3cc(C(F)(F)F)ccc3nc2-c2ccccc2)cc1)C(=O)OCC (centres undefined)", "assignedClass": "inactive"}
{"compound": "O=c1c2cccc3cccc(c4n1CCCN=4)c32", "assignedClass": "inactive"}

Query: Assay result, entry "CCOc1ccc(NC(=O)C(=O)NO)cc1" — outcome?
Result: inactive

Query: Fill in: this test's call for CC(C)c1ccc2c(c1)CCC1C(C)(C)[C@@H](O)CC[C@]21C (some centres undefined) is ___
Result: inactive

Query: Dear colleague, could you share the recorded outcome for COP1(=O)CC2C(Cl)(Cl)C2(C)C1 (centres undefined) when you have a moment?
Result: inactive
